# target.system: rat VMAT2-His (Rattus norvegicus, UniProt Q01827)
# Construct: The ORF of rat VMAT2 was subcloned into a pFastBac vector; His; made in house; host or cells: Sf9 insect cells (baculovirus)
# Sequence (Q01827 whole entry): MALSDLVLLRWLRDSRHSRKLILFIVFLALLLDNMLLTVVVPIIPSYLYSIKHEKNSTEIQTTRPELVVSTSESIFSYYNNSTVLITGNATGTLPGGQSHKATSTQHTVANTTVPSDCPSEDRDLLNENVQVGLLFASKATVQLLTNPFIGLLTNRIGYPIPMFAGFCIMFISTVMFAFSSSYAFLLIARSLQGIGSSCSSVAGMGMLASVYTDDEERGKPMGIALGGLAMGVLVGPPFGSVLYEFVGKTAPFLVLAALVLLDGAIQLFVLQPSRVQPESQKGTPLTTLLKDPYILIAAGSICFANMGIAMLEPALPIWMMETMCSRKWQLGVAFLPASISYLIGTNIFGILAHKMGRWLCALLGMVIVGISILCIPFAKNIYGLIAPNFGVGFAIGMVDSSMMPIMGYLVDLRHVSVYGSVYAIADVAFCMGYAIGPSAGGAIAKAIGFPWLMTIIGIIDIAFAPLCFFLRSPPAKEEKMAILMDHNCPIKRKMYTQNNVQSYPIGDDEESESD
# test.protocol: Differential scanning fluorimetry (DSF) with CPM dye: change of melting temperature of purified VMAT2
# Assay type: binding
# condition.set: Table S2 dose response, compound 270 µM; read-out: ΔTm
Counter-ions that a name gives are not always drawn.
Reported values of ΔTm at 270 µM for individual entries

compound: CC(C)(C)NC(=O)[C@@H]1C[C@@H]2CCCC[C@@H]2CN1C[C@@H](O)[C@H](Cc1ccccc1)NC(=O)[C@H](CC(N)=O)NC(=O)c1ccc2ccccc2n1 [Saquinavir mesylate]
unit.of.measurement: °C
ΔTm at 270 µM: -1.64

compound: O=C1Cc2cc(CCN3CCN(c4nsc5ccccc45)CC3)c(Cl)cc2N1 [Ziprasidone, Ziprasidone Hydrochloride]
unit.of.measurement: °C
ΔTm at 270 µM: 1.82

compound: COc1cc2c(cc1OC)C1CC(=O)C(CC(C)C)CN1CC2 (stereo not shown) [Tetrabenazine]
unit.of.measurement: °C
ΔTm at 270 µM: 5.17

compound: OCc1cc(C(O)CNCCCCCCOCCCCc2ccccc2)ccc1O (stereo not shown) [Salmeterol]
unit.of.measurement: °C
ΔTm at 270 µM: 10.5

compound: OC(c1cc(C(F)(F)F)nc2c(C(F)(F)F)cccc12)C1CCCCN1 (stereo not shown) [Mefloquine hydrochloride]
unit.of.measurement: °C
ΔTm at 270 µM: 0.08

compound: CCCNCC(O)COc1ccccc1C(=O)CCc1ccccc1 (stereo not shown) [Propafenone, Propafenone hydrochloride]
unit.of.measurement: °C
ΔTm at 270 µM: 4.45

compound: Fc1ccc(C(OCCN2CCN(CCCc3ccccc3)CC2)c2ccc(F)cc2)cc1 [GBR 12909 dihydrochloride]
unit.of.measurement: °C
ΔTm at 270 µM: -5.4

compound: CCCc1nn(C)c2c(=O)[nH]c(-c3cc(S(=O)(=O)N4CCN(C)CC4)ccc3OCC)nc12 [Sildenafil]
unit.of.measurement: °C
ΔTm at 270 µM: 1.04

compound: Cc1cccc(C)c1NC(=O)CN1CCN(CCCC(c2ccc(F)cc2)c2ccc(F)cc2)CC1 [Lidoflazine]
unit.of.measurement: °C
ΔTm at 270 µM: 1.14

compound: C=CCc1ccccc1OCC(O)CNC(C)C (stereo not shown) [Alprenolol hydrochloride]
unit.of.measurement: °C
ΔTm at 270 µM: 1.21

compound: C[C@H](CCC(=O)O)[C@H]1CC[C@H]2[C@@H]3C(=O)C[C@@H]4CC(=O)CC[C@]4(C)[C@H]3CC(=O)[C@]12C [Dehydrocholic acid]
unit.of.measurement: °C
ΔTm at 270 µM: 1.43

compound: CN1CCCC(n2nc(Cc3ccc(Cl)cc3)c3ccccc3c2=O)CC1 (stereo not shown) [Azelastine HCl]
unit.of.measurement: °C
ΔTm at 270 µM: 0.55

compound: CN1CCC(=C2c3ccccc3Sc3ccccc32)CC1 [Pimethixene maleate]
unit.of.measurement: °C
ΔTm at 270 µM: -1.59

compound: C1CCC(C(CC2CCCCN2)C2CCCCC2)CC1 (stereo not shown) [Perhexiline maleate]
unit.of.measurement: °C
ΔTm at 270 µM: -3.23

compound: COc1ccc(CN2CCN(C(c3ccc(F)cc3)c3ccc(F)cc3)CC2)c(OC)c1OC [Lomerizine, Lomerizine hydrochloride]
unit.of.measurement: °C
ΔTm at 270 µM: -5.36

compound: CC(C)NCC(O)COc1ccc(CCOCC2CC2)cc1 (stereo not shown) [Betaxolol, Betaxolol hydrochloride]
unit.of.measurement: °C
ΔTm at 270 µM: 1.16

compound: CC(NCCC(c1ccccc1)c1ccccc1)c1ccccc1 (stereo not shown) [Fendiline hydrochloride]
unit.of.measurement: °C
ΔTm at 270 µM: -3.27

compound: CC(C)n1c(/C=C/C(O)CC(O)CC(=O)O)c(-c2ccc(F)cc2)c2ccccc21 (stereo not shown) [Fluvastatin, Fluvastatin sodium salt]
unit.of.measurement: °C
ΔTm at 270 µM: 2.74

compound: CC(C)COCC(CN(Cc1ccccc1)c1ccccc1)N1CCCC1 (stereo not shown) [Bepridil hydrochloride]
unit.of.measurement: °C
ΔTm at 270 µM: -3.8

compound: COc1ccc2[nH]c([S+]([O-])Cc3ncc(C)c(OC)c3C)nc2n1 (stereo not shown) [Tenatoprazole]
unit.of.measurement: °C
ΔTm at 270 µM: 6.79

compound: OC(CCN1CCCCC1)(c1ccccc1)C1CC2C=CC1C2 (stereo not shown) [Biperiden, Biperiden hydrochloride]
unit.of.measurement: °C
ΔTm at 270 µM: 2.12

compound: CCCCC(CC)CN1CN(CC(CC)CCCC)CC(C)(N)C1 (stereo not shown) [Hexetidine]
unit.of.measurement: °C
ΔTm at 270 µM: -1.54

compound: CCCC(=O)Nc1ccc(OCC(O)CNC(C)C)c(C(C)=O)c1 (stereo not shown) [Acebutolol, Acebutolol hydrochloride]
unit.of.measurement: °C
ΔTm at 270 µM: 0.9

compound: O=C(c1ccc(F)cc1)C1CCN(CCn2c(=O)[nH]c3ccccc3c2=O)CC1 [Ketanserin tartrate hydrate]
unit.of.measurement: °C
ΔTm at 270 µM: 2.18

compound: Clc1ccc(Cn2c(CN3CCCC3)nc3ccccc32)cc1 [Clemizole hydrochloride]
unit.of.measurement: °C
ΔTm at 270 µM: -0.69

compound: C[C@H](CCC(=O)O)[C@H]1CC[C@H]2[C@@H]3[C@H](O)C[C@@H]4C[C@H](O)CC[C@]4(C)[C@H]3CC[C@]12C [Chenodiol]
unit.of.measurement: °C
ΔTm at 270 µM: 2.24

compound: CC(C)(C)c1ccc(C(O)CCCN2CCC(C(O)(c3ccccc3)c3ccccc3)CC2)cc1 (stereo not shown) [Terfenadine]
unit.of.measurement: °C
ΔTm at 270 µM: -0.6

compound: CC(CCc1ccccc1)NCC(O)c1ccc(O)c(C(N)=O)c1 (stereo not shown) [Labetalol hydrochloride]
unit.of.measurement: °C
ΔTm at 270 µM: 0.24
